Recorded measurements of IC80 (µg/ml) with constrains, one per entry
molecular target: HIV Env of isolate Q23.17 (clade A) (HIV); assay: cell-based or functional assay
API: value field is a number in µg/mL; no unit string.

**Q:** # lookup: IC80 (µg/ml) with constrains of PGDM1400 (antibody, V domains shown) VH: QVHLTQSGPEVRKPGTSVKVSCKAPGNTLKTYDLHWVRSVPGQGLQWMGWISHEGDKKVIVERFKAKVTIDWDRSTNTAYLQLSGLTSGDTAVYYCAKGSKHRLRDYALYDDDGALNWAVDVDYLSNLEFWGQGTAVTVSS VL: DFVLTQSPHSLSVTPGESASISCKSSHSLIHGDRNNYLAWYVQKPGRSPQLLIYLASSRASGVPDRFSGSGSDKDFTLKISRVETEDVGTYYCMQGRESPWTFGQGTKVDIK
**A:** 0.005

**Q:** # lookup: IC80 (µg/ml) with constrains of ePGDM5 (antibody, V domains shown) VH: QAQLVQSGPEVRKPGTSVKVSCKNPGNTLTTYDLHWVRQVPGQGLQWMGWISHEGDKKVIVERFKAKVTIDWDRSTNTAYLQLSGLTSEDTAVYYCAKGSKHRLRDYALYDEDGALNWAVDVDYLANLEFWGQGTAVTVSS VL: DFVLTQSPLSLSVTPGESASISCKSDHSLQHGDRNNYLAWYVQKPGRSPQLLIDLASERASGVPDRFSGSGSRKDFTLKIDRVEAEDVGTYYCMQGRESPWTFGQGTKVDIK
**A:** 0.004

**Q:** # lookup: IC80 (µg/ml) with constrains of ePGDM13 (antibody, V domains shown) VH: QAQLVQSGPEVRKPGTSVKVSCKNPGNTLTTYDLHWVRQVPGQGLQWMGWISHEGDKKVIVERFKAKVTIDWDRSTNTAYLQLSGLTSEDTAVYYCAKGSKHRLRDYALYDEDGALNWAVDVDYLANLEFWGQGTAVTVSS VL: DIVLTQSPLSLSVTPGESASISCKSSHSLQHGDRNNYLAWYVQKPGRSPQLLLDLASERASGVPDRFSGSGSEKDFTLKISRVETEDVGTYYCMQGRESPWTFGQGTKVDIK
**A:** 0.004

**Q:** # lookup: IC80 (µg/ml) with constrains of ePGDM9 (antibody, V domains shown) VH: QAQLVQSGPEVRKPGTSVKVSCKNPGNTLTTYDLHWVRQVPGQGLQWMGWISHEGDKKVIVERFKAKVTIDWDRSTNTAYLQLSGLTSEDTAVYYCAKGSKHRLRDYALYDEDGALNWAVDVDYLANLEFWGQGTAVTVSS VL: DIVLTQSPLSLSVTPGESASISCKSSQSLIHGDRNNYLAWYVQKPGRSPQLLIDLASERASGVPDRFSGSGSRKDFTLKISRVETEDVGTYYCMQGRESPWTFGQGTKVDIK
**A:** 0.002
